test: Multiple ascending dose study NP10679-102, plasma pharmacokinetics; format: in vivo; settings: human, iv, 50 mg, T 1/2, MAD, 50 mg IV once daily, day 4
test-readout: half-life (h)
Express the result in h but write the number alone.

**Query** Which half-life value is on record for O=C1CCc2cc(OC[C@H](O)CN3CCN(c4ccc(C(F)(F)F)cc4)CC3)ccc2N1 ?
**Result** 16

* * *

test: Multiple ascending dose study NP10679-102, plasma pharmacokinetics; format: in vivo; settings: human, iv, 25 mg, T 1/2, MAD, 25 mg IV once daily, day 4
test-readout: half-life (h)
Numbers only; they are read as h.

**Query** For the molecule O=C1CCc2cc(OC[C@H](O)CN3CCN(c4ccc(C(F)(F)F)cc4)CC3)ccc2N1 , what half-life is on record?
**Result** 19

* * *

test: Single ascending dose study NP10679-101, plasma pharmacokinetics; format: in vivo, human; settings: human, plasma, iv, 150 mg, Vd, area, mean, SAD, single IV infusion 150 mg
test-readout: Vd (L)
Field: numeric (L). Do not append units.

**Query** What does the record list as Vd for O=C1CCc2cc(OC[C@H](O)CN3CCN(c4ccc(C(F)(F)F)cc4)CC3)ccc2N1 [NP10679] ?
**Result** 286

* * *

assay: Multiple ascending dose study NP10679-102, plasma pharmacokinetics; assay type: in vivo; conditions: human, iv, 50 mg, T 1/2, MAD, 50 mg IV once daily, day 3
test-readout: half-life (h)
// return numeric value only (unit: h, not printed)

**Query** Look up half-life for this compound: O=C1CCc2cc(OC[C@H](O)CN3CCN(c4ccc(C(F)(F)F)cc4)CC3)ccc2N1 [NP10679]
**Result** 26

* * *

assay: Multiple ascending dose study NP10679-102, plasma pharmacokinetics; type: in vivo; conditions: human, iv, 25 mg, AUC 0–24, MAD, 25 mg IV once daily, day 2
test-readout: AUC(0-t)
Please answer in the form of a number followed by its unit of measurement.

**Query** Find the recorded AUC(0-t) belonging to O=C1CCc2cc(OC[C@H](O)CN3CCN(c4ccc(C(F)(F)F)cc4)CC3)ccc2N1 and report it.
**Result** 1920 ng·h/mL

* * *

assay: Multiple ascending dose study NP10679-102, plasma pharmacokinetics; assay type: in vivo; details: human, iv, 50 mg, T 1/2, MAD, 50 mg IV once daily, day 1
test-readout: half-life (h)
Give a bare numeral; the unit h is implied.

**Query** Any idea what half-life was measured for O=C1CCc2cc(OC[C@H](O)CN3CCN(c4ccc(C(F)(F)F)cc4)CC3)ccc2N1 ?
**Result** 18

* * *

test: Single ascending dose study NP10679-101, plasma pharmacokinetics; format: in vivo, human; conditions: human, plasma, intravenous
test-readout: clearance

**Query** # input molecule: O=C1CCc2cc(OC[C@H](O)CN3CCN(c4ccc(C(F)(F)F)cc4)CC3)ccc2N1 ; wanted: its clearance
**Result** 163 to 200 mL/min

* * *

test: Multiple ascending dose study NP10679-102, plasma pharmacokinetics; type: in vivo; details: human, iv, 25 mg, Cmax, MAD, 25 mg IV once daily, day 4
test-readout: Cmax (ng/mL)
Write the value in ng/mL as a bare number.

**Query** Fill in the blank: the reported Cmax of O=C1CCc2cc(OC[C@H](O)CN3CCN(c4ccc(C(F)(F)F)cc4)CC3)ccc2N1 is ____.
**Result** 250

The values you see were collected from paper PMC10329973.
